Molecular target: JAK2 (Homo sapiens, UniProt O60674)
Sequence (O60674 whole entry): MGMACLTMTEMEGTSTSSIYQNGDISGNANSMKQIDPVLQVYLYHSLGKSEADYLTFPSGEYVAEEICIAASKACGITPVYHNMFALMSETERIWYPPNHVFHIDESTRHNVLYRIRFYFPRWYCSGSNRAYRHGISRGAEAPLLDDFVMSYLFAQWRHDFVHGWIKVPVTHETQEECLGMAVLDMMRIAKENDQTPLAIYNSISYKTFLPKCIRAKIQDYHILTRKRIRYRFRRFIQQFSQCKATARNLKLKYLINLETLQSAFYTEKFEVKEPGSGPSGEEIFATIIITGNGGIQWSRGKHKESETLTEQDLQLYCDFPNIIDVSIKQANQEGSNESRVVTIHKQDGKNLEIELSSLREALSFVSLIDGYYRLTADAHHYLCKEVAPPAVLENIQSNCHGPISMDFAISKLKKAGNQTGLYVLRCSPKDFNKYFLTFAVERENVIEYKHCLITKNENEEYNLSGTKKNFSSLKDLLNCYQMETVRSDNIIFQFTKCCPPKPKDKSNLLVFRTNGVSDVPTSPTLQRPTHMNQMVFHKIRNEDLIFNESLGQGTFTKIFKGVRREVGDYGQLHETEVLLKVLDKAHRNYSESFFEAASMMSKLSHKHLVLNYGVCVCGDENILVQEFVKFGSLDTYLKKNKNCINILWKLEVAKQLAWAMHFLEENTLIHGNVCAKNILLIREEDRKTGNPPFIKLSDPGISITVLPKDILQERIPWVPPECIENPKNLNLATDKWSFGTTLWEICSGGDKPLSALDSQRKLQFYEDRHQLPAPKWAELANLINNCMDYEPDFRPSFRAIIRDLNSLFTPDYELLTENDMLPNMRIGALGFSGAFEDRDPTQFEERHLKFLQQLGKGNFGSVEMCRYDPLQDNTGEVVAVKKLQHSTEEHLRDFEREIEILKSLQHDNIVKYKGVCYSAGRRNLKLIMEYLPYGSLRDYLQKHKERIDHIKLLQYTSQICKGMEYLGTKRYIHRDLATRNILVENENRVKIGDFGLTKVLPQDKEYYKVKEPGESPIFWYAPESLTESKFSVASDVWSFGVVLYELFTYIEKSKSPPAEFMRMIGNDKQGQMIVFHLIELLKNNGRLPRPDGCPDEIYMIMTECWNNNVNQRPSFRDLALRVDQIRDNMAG
pIC50: −log10 of the molar value.
Value type: pIC50

Lookup: Answer with reported pIC50 of C=CC(=O)N[C@@H]1CCCN(c2ncnc3[nH]ccc23)C1 [RB1]
Found: < 5.30

###

Molecular target: MKK7β (Homo sapiens)
Sequence (O14733 whole entry): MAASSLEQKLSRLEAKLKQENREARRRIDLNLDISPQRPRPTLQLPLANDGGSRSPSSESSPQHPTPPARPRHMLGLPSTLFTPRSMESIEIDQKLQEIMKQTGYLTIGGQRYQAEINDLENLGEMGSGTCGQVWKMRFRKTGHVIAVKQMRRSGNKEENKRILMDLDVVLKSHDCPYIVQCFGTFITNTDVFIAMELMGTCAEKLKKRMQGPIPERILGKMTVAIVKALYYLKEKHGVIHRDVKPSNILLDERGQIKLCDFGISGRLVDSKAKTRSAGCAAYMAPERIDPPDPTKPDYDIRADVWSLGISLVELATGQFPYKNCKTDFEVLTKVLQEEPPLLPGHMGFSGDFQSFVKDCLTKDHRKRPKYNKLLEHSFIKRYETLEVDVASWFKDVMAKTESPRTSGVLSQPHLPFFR
Value type: IC50

Lookup: Answer with reported IC50 of C=CC(=O)N[C@@H]1CCCN(c2ncnc3[nH]ccc23)C1
Found: > 800 nM

###

Biological target: JAK1 (Homo sapiens, UniProt P23458)
Sequence (P23458 whole entry): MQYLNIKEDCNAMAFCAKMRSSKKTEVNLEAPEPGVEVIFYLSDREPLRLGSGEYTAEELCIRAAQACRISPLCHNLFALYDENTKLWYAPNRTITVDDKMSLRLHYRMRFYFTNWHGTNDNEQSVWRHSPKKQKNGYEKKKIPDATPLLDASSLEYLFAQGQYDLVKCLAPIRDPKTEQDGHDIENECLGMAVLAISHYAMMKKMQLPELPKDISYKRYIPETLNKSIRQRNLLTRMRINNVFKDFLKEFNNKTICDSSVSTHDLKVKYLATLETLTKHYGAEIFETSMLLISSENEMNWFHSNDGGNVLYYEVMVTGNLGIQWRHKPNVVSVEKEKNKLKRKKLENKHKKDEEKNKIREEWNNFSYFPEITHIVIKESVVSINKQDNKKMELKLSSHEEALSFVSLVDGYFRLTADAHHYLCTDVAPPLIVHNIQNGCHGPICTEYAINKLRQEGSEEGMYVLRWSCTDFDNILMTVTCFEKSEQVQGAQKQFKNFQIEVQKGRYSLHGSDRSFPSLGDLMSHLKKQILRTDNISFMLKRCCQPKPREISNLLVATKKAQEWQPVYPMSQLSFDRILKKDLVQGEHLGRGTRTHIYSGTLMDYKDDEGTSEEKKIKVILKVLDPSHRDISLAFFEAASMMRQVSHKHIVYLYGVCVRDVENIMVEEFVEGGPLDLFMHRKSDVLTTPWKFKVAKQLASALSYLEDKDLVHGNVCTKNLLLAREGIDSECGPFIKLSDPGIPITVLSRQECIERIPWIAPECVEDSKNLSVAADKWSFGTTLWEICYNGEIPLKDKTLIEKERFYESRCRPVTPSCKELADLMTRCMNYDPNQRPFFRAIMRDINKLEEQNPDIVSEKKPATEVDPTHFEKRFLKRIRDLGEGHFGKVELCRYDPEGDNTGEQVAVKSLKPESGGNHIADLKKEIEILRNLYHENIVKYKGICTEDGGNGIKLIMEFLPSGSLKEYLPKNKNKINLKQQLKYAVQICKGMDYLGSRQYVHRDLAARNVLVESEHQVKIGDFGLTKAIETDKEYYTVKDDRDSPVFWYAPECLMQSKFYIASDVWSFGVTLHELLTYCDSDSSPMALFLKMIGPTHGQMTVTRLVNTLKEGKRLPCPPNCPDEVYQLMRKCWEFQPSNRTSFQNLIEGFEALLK
Value type: IC50

Lookup: Answer with reported IC50 of C=CC(=O)N[C@@H]1CCCN(c2ncnc3[nH]ccc23)C1
Found: > 5 µM

The measurements presented in this section are drawn from paper PMC5869712.
